Value source: the supplement of paper PMC6089552

# Test system: A673/TR/shEF
# measurement-notes: cell viability (LOESS-normalised, relative to median of negative controls) (log2 ratio); higher = more viable cells (less compound effect), active = hit call of the paper (over 3 MAD below the median)
# test-parameters: 2.5 µM; library screen: screen1; EWS-FLI1 expression: low (doxycycline-induced shRNA knockdown); treatment time: 72 h
Among all 3,200 compounds or so, about 300 (9.4%) showed activity. What follows is part of a selection rich in actives, with near analogues and random picks from the rest.
Outcomes: active, inactive

{"compound": "COc1cc([C@@H]2c3cc4c(cc3[C@H](O)[C@H]3COC(=O)[C@H]23)OCO4)cc(OC)c1OC", "study-target": "A673/TR/shEF", "assigned-category": "active"}
{"compound": "COc1cc([C@@H]2c3cc4c(c(O)c3C[C@H]3COC(=O)[C@@H]32)OCO4)cc(OC)c1OC", "study-target": "A673/TR/shEF", "assigned-category": "active"}
{"compound": "COc1cc2c(cc1OC)[C@H]1C(=O)c3ccc4c(c3O[C@H]1CO2)C[C@@H](C(C)C)O4", "study-target": "A673/TR/shEF", "assigned-category": "active"}
{"compound": "c1ccc2c3c([nH]c2c1)CNCC3", "study-target": "A673/TR/shEF", "assigned-category": "inactive"}
{"compound": "COc1cc2c(cc1OC)C1C(=O)c3ccc(O)c(CC=C(C)C)c3OC1CO2 (centres undefined)", "study-target": "A673/TR/shEF", "assigned-category": "inactive"}
{"compound": "CC(C)c1cc2c(c(O)c1O)[C@@]1(C(=O)O)CCCC(C)(C)[C@@H]1CC2", "study-target": "A673/TR/shEF", "assigned-category": "inactive"}
{"compound": "C=C(C)[C@H]1Cc2c(ccc3c(=O)c4c(oc23)COc2cc(OC)c(OC)cc2-4)O1", "study-target": "A673/TR/shEF", "assigned-category": "inactive"}
{"compound": "COc1ccc2c(c1OC)C(=O)O[C@H]2[C@H]1c2cc3c(cc2CCN1C)OCO3", "study-target": "A673/TR/shEF", "assigned-category": "inactive"}
{"compound": "COc1cc([C@@H]2c3cc4c(cc3[C@H](OC(C)=O)[C@H]3COC(=O)[C@H]23)OCO4)cc(OC)c1OC", "study-target": "A673/TR/shEF", "assigned-category": "active"}
